# Test system: Hepatotoxicity
# TEST: FDA HLAED, liver enzyme composite activity
# CONDITIONS USED: human
ASSAY ENDPOINT: Composite Activity - Score

Sample answers from the record:
- COMPOUND: "CCN[C@H]1C[C@H](C)S(=O)(=O)c2sc(S(N)(=O)=O)cc21 [DORZOLAMIDE]"
  Composite Activity - Score: "Inactive"
- COMPOUND: "N#Cc1cc(NC(=O)C(=O)O)c(Cl)c(NC(=O)C(=O)O)c1 [LODOXAMIDE]"
  Composite Activity - Score: "Inactive"
- COMPOUND: "CO[C@@]1(NC(=O)CSCC#N)C(=O)N2C(C(=O)O)=C(CSc3nnnn3C)CS[C@@H]21"
  Composite Activity - Score: "Inactive"
- COMPOUND: "Cn1nnnc1SCC1=C(C(=O)O)N2C(=O)[C@@H](NC(=O)[C@H](O)c3ccccc3)[C@H]2SC1"
  Composite Activity - Score: "Inactive"
- COMPOUND: "CCCCCCCCCC(=O)CC(=O)O[C@H]1CC[C@H]2[C@@H]3CCC4=CC(=O)CC[C@]4(C)[C@H]3CC[C@]12C [TESTOSTERONE KETOLAURATE]"
  Composite Activity - Score: "Inactive"
- COMPOUND: "Oc1ncnc2[nH]ncc12"
  Composite Activity - Score: "Active"

What does the data say about its Composite Activity - Score? Entry: CCN(CC)CCOc1ccc(/C(=C(/Cl)c2ccccc2)c2ccccc2)cc1
Active

Any idea what Composite Activity - Score was measured for C[N+](C)(C)C[C@H](O)CC(=O)[O-] ?
Inactive

====

# Tested on: Hepatotoxicity
# TEST: FDA HLAED, serum glutamic oxaloacetic transaminase (SGOT) increase
# CONDITIONS USED: human
ASSAY ENDPOINT: SGOT Increase - Activity Score

Below: 8 molecules and their reported SGOT Increase - Activity Score.
- MOLECULE: "Cc1cc2c(s1)Nc1ccccc1N=C2N1CCN(C)CC1 [OLANZAPINE]"
  TEST SYSTEM: "Hepatotoxicity"
  REPORTED MEASUREMENT: "Active"
- MOLECULE: "CC(CN(C)C)CN1c2ccccc2CCc2ccccc21 (centres undefined) [TRIMIPRAMINE]"
  TEST SYSTEM: "Hepatotoxicity"
  REPORTED MEASUREMENT: "Inactive"
- MOLECULE: "Nc1nc(F)nc2c1ncn2[C@@H]1O[C@H](CO)[C@@H](O)[C@@H]1O [FLUDARABINE]"
  TEST SYSTEM: "Hepatotoxicity"
  REPORTED MEASUREMENT: "Active"
- MOLECULE: "CC1=C(C(=O)O)N2C(=O)[C@@H](NC(=O)[C@H](N)c3ccc(O)cc3)[C@H]2SC1 [CEFADROXIL]"
  TEST SYSTEM: "Hepatotoxicity"
  REPORTED MEASUREMENT: "Inactive"
- MOLECULE: "CN1CCN(C2=Nc3cc(Cl)ccc3Nc3ccccc32)CC1 [CLOZAPINE]"
  TEST SYSTEM: "Hepatotoxicity"
  REPORTED MEASUREMENT: "Active"
- MOLECULE: "Cc1nc2n(c(=O)c1CCN1CCC(c3noc4cc(F)ccc34)CC1)CCCC2 [RISPERIDONE]"
  TEST SYSTEM: "Hepatotoxicity"
  REPORTED MEASUREMENT: "Active"
- MOLECULE: "Cc1nccn1CC1CCc2c(c3ccccc3n2C)C1=O (centres undefined) [ONDANSETRON]"
  TEST SYSTEM: "Hepatotoxicity"
  REPORTED MEASUREMENT: "Inactive"
- MOLECULE: "CC1(C)O[C@@H]2[C@@H](CO[C@@]3(COS(N)(=O)=O)OC(C)(C)O[C@@H]23)O1 [TOPIRAMATE]"
  TEST SYSTEM: "Hepatotoxicity"
  REPORTED MEASUREMENT: "Inactive"

Which SGOT Increase - Activity Score is reported for this molecule? O=S(=O)([O-])CCS.[Na+] [MESNA]
Inactive

====

# System: Hepatotoxicity
# TEST: FDA HLAED, serum glutamic pyruvic transaminase (SGPT) increase
# CONDITIONS USED: human
ASSAY ENDPOINT: SGPT Increase - Number of Reports

- COMPOUND: "C/C(=C\\C(=O)OCCCCCCCCC(=O)O)C[C@@H]1OC[C@H](C[C@@H]2O[C@H]2[C@@H](C)[C@H](C)O)[C@@H](O)[C@H]1O"
  TEST SYSTEM: "Hepatotoxicity"
  ASSAY ENDPOINT: "SGPT Increase - Number of Reports"
  REPORTED MEASUREMENT: "< 4"
- COMPOUND: "Cc1cc2c(s1)Nc1ccccc1N=C2N1CCN(C)CC1"
  TEST SYSTEM: "Hepatotoxicity"
  ASSAY ENDPOINT: "SGPT Increase - Number of Reports"
  REPORTED MEASUREMENT: ">= 4"
- COMPOUND: "COc1ccc2[nH]c([S+]([O-])Cc3ncc(C)c(OC)c3C)nc2c1 (stereo unspecified)"
  TEST SYSTEM: "Hepatotoxicity"
  ASSAY ENDPOINT: "SGPT Increase - Number of Reports"
  REPORTED MEASUREMENT: ">= 4"
- COMPOUND: "CC(=O)N1CCN(c2ccc(OCC3COC(Cn4ccnc4)(c4ccc(Cl)cc4Cl)O3)cc2)CC1 (stereo unspecified)"
  TEST SYSTEM: "Hepatotoxicity"
  ASSAY ENDPOINT: "SGPT Increase - Number of Reports"
  REPORTED MEASUREMENT: ">= 4"
- COMPOUND: "O=P1(NCCCl)OCCCN1CCCl (stereo unspecified) [IFOSFAMIDE]"
  TEST SYSTEM: "Hepatotoxicity"
  ASSAY ENDPOINT: "SGPT Increase - Number of Reports"
  REPORTED MEASUREMENT: "< 4"

Fill in: SGPT Increase - Number of Reports of CC[C@H]1OC(=O)[C@H](C)[C@@H](O[C@H]2C[C@@](C)(OC)[C@@H](O)[C@H](C)O2)[C@H](C)[C@@H](O[C@@H]2O[C@H](C)C[C@H](N(C)C)[C@H]2O)[C@](C)(O)C[C@@H](C)[C@@H]2N[C@@H](COCCOC)O[C@H]([C@H]2C)[C@]1(C)O is ___
< 4

Which value of SGPT Increase - Number of Reports has been reported for COc1ccc([C@@H]2Sc3ccccc3N(CCN(C)C)C(=O)[C@@H]2OC(C)=O)cc1 in the records?
< 4

Quick one: SGPT Increase - Number of Reports for CCn1cc(C(=O)O)c(=O)c2cc(F)c(N3CCNCC3)cc21 ?
>= 4

Look up SGPT Increase - Number of Reports: COc1ccc2cc(CCC(C)=O)ccc2c1
>= 4

Fill blank: measured SGPT Increase - Number of Reports of the compound O=C(O)c1cc(-c2ccc(F)cc2F)ccc1O is ____.
< 4

What value of measured SGPT Increase - Number of Reports is listed for Nc1nc(/C(=C/CC(=O)O)C(=O)N[C@@H]2C(=O)N3C(C(=O)O)=CCS[C@H]23)cs1 ?
< 4

Consider the compound CC(CCc1ccccc1)NCC(O)c1ccc(O)c(C(N)=O)c1 (stereo unspecified) and give its measured SGPT Increase - Number of Reports.
>= 4

Name the recorded SGPT Increase - Number of Reports for CC(C)NCC(O)COc1cccc2[nH]ccc12 (stereo unspecified) .
>= 4

Recorded SGPT Increase - Number of Reports for C[C@]12CC[C@@H]3c4ccc(OC(=O)N(CCCl)CCCl)cc4CC[C@H]3[C@@H]1CC[C@@H]2O , please?
< 4

What measured SGPT Increase - Number of Reports goes with CCCCc1oc2ccccc2c1C(=O)c1cc(I)c(OCCN(CC)CC)c(I)c1 ?
< 4

I am curious: what SGPT Increase - Number of Reports value has been reported for CCN[C@@H]1C[C@H](N)[C@@H](O[C@H]2OC(CN)=CC[C@H]2N)[C@H](O)[C@H]1O[C@H]1OC[C@](C)(O)[C@H](NC)[C@H]1O ?
< 4

====

# Test system: Hepatotoxicity
# TEST: FDA HLAED, serum glutamic oxaloacetic transaminase (SGOT) increase
# CONDITIONS USED: human
ASSAY ENDPOINT: SGOT Increase - Index Value
# output: bare number, no unit

Below: 8 molecules and their reported SGOT Increase - Index Value.
- MOLECULE: "Cn1nnnc1SCC1=C(C(=O)[O-])N2C(=O)[C@@H](NC(=O)[C@H](OC=O)c3ccccc3)[C@H]2SC1.[Na+] [CEFAMANDOLE NAFATE]"
  SGOT Increase - Index Value: 0
- MOLECULE: "CN1CCN(C2=Nc3ccccc3Oc3ccc(Cl)cc32)CC1 [LOXAPINE]"
  SGOT Increase - Index Value: 9.9
- MOLECULE: "CCCCCCCN(CC)CCCC(O)c1ccc(NS(C)(=O)=O)cc1 (stereo not given) [IBUTILIDE]"
  SGOT Increase - Index Value: 0
- MOLECULE: "N[C@@H](C(=O)N[C@@H]1C(=O)N2C(C(=O)O)=C(Cl)CC[C@H]12)c1ccccc1 [LORACARBEF ANHYDROUS]"
  SGOT Increase - Index Value: 0.2
- MOLECULE: "CCN1CCN(C(=O)N[C@@H](C(=O)N[C@@H]2C(=O)N3C(C(=O)O)=C(CSc4nnnn4C)CS[C@H]23)c2ccc(O)cc2)C(=O)C1=O [CEFOPERAZONE]"
  SGOT Increase - Index Value: 0.4
- MOLECULE: "C=C1/C(=C\\C=C2/CCC[C@]3(C)[C@@H]([C@H](C)CCCC(C)(C)O)CC[C@@H]23)C[C@@H](O)C[C@@H]1O [CALCITRIOL]"
  SGOT Increase - Index Value: 0
- MOLECULE: "C[C@]12CC[C@H]3[C@@H](CCC4=CC(=O)CC[C@@]43C)[C@@H]1CC[C@@H]2OC(=O)Cc1ccccc1 [TESTOSTERONE PHENYLACETATE]"
  SGOT Increase - Index Value: 4.8
- MOLECULE: "CC1COc2c(N3CCN(C)CC3)c(F)cc3c(=O)c(C(=O)O)cn1c23 (stereo not given) [OFLOXACIN]"
  SGOT Increase - Index Value: 1.9

Kindly review the next molecule as well.
Need SGOT Increase - Index Value, item CCCN1CCCC[C@H]1C(=O)Nc1c(C)cccc1C [ROPIVACAINE]
0

Provenance of the data: ChEMBL document CHEMBL1697781
